B1: HDV Ribozyme (parent)
chain: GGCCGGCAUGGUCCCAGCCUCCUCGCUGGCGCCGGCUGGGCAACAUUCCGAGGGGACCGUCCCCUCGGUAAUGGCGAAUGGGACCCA

Variants of: B1
Test: self-cleavage, relative activity (ratio to wild type); higher = more cleavage; co-transcriptional
Met means recorded self-cleavage is 0.4 or above; Not met means it is below 0.4.

Input: API: above_or_equal(metric=self-cleavage, cutoff=0.4) for item C22G G82A
Output: Not met
